- System: OVCAR-5 ovarian
- METHOD NOTES: NCI tumour cell line growth inhibition, 48 h; in the data active means GI50 below about 0.43 µM; inactive means the rest
Respond with a class label; see active, inactive

| COMPOUND | CLASS ASSIGNMENT |
| --- | --- |
| CN(C)CCNC(=O)c1ccc(-c2nc3ccc4[nH]ncc4c3c3c2C2CCC3C2)cc1 (stereo not given) | inactive |
| CCN(Cc1cc(F)ccc1F)c1ccc(CO)c(Cl)c1 | active |
| CCn1c(-c2cc3c([nH]c4ccccc43)c(-c3cccc(O)c3)n2)n[nH]c1=S | inactive |

Task: What did the test return for [O-]c1ccccc1C=Nc1ccc2c(c1)CCC2.[O-]c1ccccc1C=Nc1ccc2c(c1)CCC2.[O]=[U+2]=[O] ?
Result: inactive

Task: CN1CCN(CCOc2ccc(-c3cnc4c(-c5cccc(F)c5)cnn4c3)cc2)CC1 ?
Result: inactive
